Molecular target: T1, PDZRN3_1, Q9UPQ7
T1 sequence (Q9UPQ7 244-349, limits assumed, looked up): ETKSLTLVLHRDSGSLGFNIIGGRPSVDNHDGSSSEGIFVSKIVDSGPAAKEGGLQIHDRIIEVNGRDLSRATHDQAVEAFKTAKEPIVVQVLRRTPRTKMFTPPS
Test: holdup assay
Design: key: below the threshold = too weak to quantify, mostly under pKd 3.1 to 4
Settings: plain residues with an end cap or a label only (N-terminal biotin on a linker: ado-ado)
value type: pKd

Look over these answered cases.
AKADAQESRL [PLCB2, Q00722]
4.42
QRYPGNQTTC [CCL24, O00175]
below the threshold
GDSSRKEYFI [GYPC, P04921]
below the threshold
GQNMTVSVVI [PRLHR, P49683]
below the threshold

// next entry
Specify measured pKd for GSQSQVETEA [FKBP4, Q02790] .
below the threshold
